# study.system: T1, Recombinant soluble E protein (0.8E-His) from DENV-1 (DENV-1, UniProt P27909 281-675)
# T1 construct: also called DENV-1 E protein; DV1
pKd: −log10 of the molar value.

# binder, pKd
data = [
    ("DG_3CH-SG182/3CL563-SK1 (antibody, V domains shown) VH: QVQLVQSGPDVEKPGASVKVSCKASGYTFTSNYIHWVRQAPGQGLEWMGVINPRGGSTASAQKFQGRITMTRDTSTSTVYMELSSLRSDDTAVYYCARGGRALFYDSYTTPRDGGSWWFDPWGQGSLVTVSS VL: DIQLTQSPSSLSASVGDRVTFTCQASQDIRQYLNWYQQKPGKAPKLLIYDASNLKFGVPSRFSGSGSGTDFTFTISSLQPEDVATYYCQQFSALPITFGQGTRLQIKR", 7.87),
    ("DG_3CH955-SG182/3CL563-SK1 (antibody, human IgG1, kappa, V domains shown) VH: QVQLVQSGPDVEKPGASVKVSCKASGYTFTSNYIHWVRQAPGQGLEWMGVINPRGGSRRSAQKFQGRITMTRDTSTSTVYMELSSLRSEDTAVYYCARGGRALFYDSYTTPRDLGSWWFDPWGQGSLVTVSS VL: DIQLTQSPSSLSASVGDRVTFTCQASQDIRQYLNWYQQKPGKAPKLLIYDASNLKFGVPSRFSGSGSGTDFTFTISSLQPEDVATYYCQQFSALPITFGQGTRLQIKR", 8.72),
]
